protocol: Plasma protein binding (c)
Type: in vitro ADME, c (presumably cynomolgus)
measurement parameters: cynomolgus monkey, pH 7.4, read-out: fu plasma (c)
quantity: fraction unbound at 4 h, 5 µM
Quick one: just the number, no unit, thanks!

For the compound Cc1nc(C2CC2)ccc1CNC(=O)c1cc(-n2cccn2)ccc1Cl [compound 8] , give its reported fraction unbound at 4 h, 5 µM.
0.46

---

Listing: half-life of selected compounds
protocol: Rat IV/PO pharmacokinetics
Type: in vivo
measurement parameters: rat, plasma; read-out: Elimination t1/2 (converted)
Answers without a unit are incomplete; give the number and then its unit.

{"columns": ["smiles str", "half-life"],
 "data": [
  ["Cn1nc(-c2ccnn2C)cc1CNC(=O)c1cc(-n2cccn2)ccc1Cl", "3 h"],
  ["Cc1nc(C2CC2)ccc1CNC(=O)c1cc(-n2cccn2)ccc1Cl", "2.1 h"],
  ["Cc1nc2ccccc2cc1CNC(=O)c1cc(-n2cccn2)ccc1Cl", "1.1 h"]
]}

Okay, now this compound:
For the compound Cc1nc2c(F)cccc2cc1CNC(=O)c1cc(-n2cccn2)ccc1Cl , give its reported half-life.
2.1 h

// data source = paper PMC11843613
